- study-system: T1, recombinant human FGF23 (R179Q) (human, UniProt Q9GZV9 25-251)
- T1 construct: also called rhFGF23(R179Q); hFGF23(R179Q)
- T1 sequence (looked up): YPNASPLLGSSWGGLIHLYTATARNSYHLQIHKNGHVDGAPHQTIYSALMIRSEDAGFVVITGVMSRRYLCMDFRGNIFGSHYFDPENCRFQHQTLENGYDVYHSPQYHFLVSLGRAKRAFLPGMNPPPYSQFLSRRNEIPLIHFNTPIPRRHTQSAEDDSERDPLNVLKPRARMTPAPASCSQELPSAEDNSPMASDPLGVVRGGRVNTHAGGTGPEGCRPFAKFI
- protocol: SPR, antibody captured on hIgG chip, rhFGF23(R179Q) analyte
The binders listed here are annotated with their SA (surface activity).
Field format: number, assumed %, no unit text.

{"binder": "UGX153 (antibody, human IgG1, kappa, V domains shown, also called HC:N31R) VH: QVQLVQSGAEVKKPGASVKVSCKASGYTFTRHYMHWVRQAPGQGLEWMGIINPISGSTSNAQKFQGRVTMTRDTSTSTVYMELSSLRSEDTAVYYCARDIVDAFDFWGQGTMVTVSS VL: AIQLTQSPSSLSASVGDRVTITCRASQGISSALVWYQQKPGKAPKLLIYDASSLESGVPSRFSGSGSGTDFTLTISSLQPEDFATYYCQQFNDYFTFGPGTKVDIKR", "quantity-unit": "%", "SA (surface activity)": 83.7}

Task: For UGX146 (antibody, human IgG1, kappa, V domains shown, also called LC:Y94F) VH: QVQLVQSGAEVKKPGASVKVSCKASGYTFTNHYMHWVRQAPGQGLEWMGIINPISGSTSNAQKFQGRVTMTRDTSTSTVYMELSSLRSEDTAVYYCARDIVDAFDFWGQGTMVTVSS VL: AIQLTQSPSSLSASVGDRVTITCRASQGISSALVWYQQKPGKAPKLLIYDASSLESGVPSRFSGSGSGTDFTLTISSLQPEDFATYYCQQFNDFFTFGPGTKVDIKR , write its SA (surface activity).
Output: 89.9

Task: For UGX182 (antibody, human IgG1, kappa, V domains shown, also called HC:S59D, HC:V101I; S59D/V101I) VH: QVQLVQSGAEVKKPGASVKVSCKASGYTFTNHYMHWVRQAPGQGLEWMGIINPISGSTDNAQKFQGRVTMTRDTSTSTVYMELSSLRSEDTAVYYCARDIIDAFDFWGQGTMVTVSS VL: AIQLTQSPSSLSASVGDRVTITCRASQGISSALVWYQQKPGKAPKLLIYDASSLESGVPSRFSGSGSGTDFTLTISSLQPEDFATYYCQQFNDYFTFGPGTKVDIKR , write its SA (surface activity).
Output: 100

Task: For UGX190 (antibody, human IgG1, kappa, V domains shown, also called HC:S59T, HC:V101L) VH: QVQLVQSGAEVKKPGASVKVSCKASGYTFTNHYMHWVRQAPGQGLEWMGIINPISGSTTNAQKFQGRVTMTRDTSTSTVYMELSSLRSEDTAVYYCARDILDAFDFWGQGTMVTVSS VL: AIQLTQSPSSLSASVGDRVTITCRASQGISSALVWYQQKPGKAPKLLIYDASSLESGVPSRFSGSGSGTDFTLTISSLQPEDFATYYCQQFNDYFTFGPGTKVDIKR , write its SA (surface activity).
Output: 92.7
